Source of measurements: patent US8367687B2

test system: CDK4 (Homo sapiens, UniProt P11802)
Sequence (P11802 whole entry): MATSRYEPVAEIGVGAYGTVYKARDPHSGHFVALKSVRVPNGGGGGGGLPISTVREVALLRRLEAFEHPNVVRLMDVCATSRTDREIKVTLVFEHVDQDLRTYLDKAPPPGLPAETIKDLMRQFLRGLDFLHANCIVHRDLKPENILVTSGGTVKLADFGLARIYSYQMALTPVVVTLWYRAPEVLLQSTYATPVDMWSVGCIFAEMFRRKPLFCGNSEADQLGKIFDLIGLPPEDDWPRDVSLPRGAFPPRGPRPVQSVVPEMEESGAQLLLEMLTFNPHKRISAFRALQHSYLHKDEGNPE
Sequence (P24385 whole entry partner): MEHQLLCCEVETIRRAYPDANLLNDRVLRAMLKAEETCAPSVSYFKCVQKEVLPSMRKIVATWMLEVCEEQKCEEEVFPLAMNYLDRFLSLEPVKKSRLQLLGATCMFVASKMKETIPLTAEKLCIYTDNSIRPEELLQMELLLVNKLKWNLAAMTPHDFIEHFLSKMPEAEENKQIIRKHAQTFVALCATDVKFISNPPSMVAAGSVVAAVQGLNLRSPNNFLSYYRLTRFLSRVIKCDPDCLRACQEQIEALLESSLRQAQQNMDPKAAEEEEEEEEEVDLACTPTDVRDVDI
protocol notes: CDK4 HTRF
Assay type: biochemical
details: Table 1; read-out: CDK4 HTRF
quantity kind: IC50

// solved cases for IC50 follow
{"compound": "c1ccc2c(c1)CCC2Nc1cc(-c2cn[nH]c2C2CC2)ccn1 (stereo not shown)", "IC50": "< 0.5 µM"}
{"compound": "c1ccc2c(c1)CC(Nc1cc(-c3cn[nH]c3C3CCCCCC3)ccn1)C2", "IC50": "< 5 µM"}

Please tell me the measured IC50 for `CC(C)c1[nH]ncc1-c1ccnc(NCCOc2ccccc2)c1` ; system: CDK4 (Homo sapiens, UniProt P11802).
< 5 µM

Please tell me the measured IC50 for `CC(C)c1[nH]ncc1-c1ccnc(NCCc2ccccn2)c1` ; system: CDK4 (Homo sapiens, UniProt P11802).
< 1 µM

###

Quick reference: IC50 of the listed items.
test system: CDK2 cyA (Homo sapiens)
protocol notes: CDK2 cyA IMAP
Type: biochemical
details: Table 1; read-out: CDK2 cyA IMAP

{"compound": "c1cc(-c2cn[nH]c2C2CCCC2)cc(NC2CCCC2)n1", "IC50": "< 0.5 µM"}
{"compound": "CC(C)c1[nH]ncc1-c1ccnc(NC2CCN(Cc3ccccc3)CC2)c1", "IC50": "≥ 15 µM"}
{"compound": "CN1CCC(Nc2cc(-c3cn[nH]c3C(C)(C)C)ccn2)CC1", "IC50": "< 15 µM"}
{"compound": "CC(C)c1[nH]ncc1-c1ccnc(NCC2CCNCC2)c1", "IC50": "≥ 15 µM"}
{"compound": "CCC(C)c1[nH]ncc1-c1ccnc(NCc2ccccc2C)c1 (stereo not shown)", "IC50": "< 5 µM"}

Kindly indicate its recorded IC50. Item: `CC(C)c1[nH]ncc1-c1ccnc(NCCN2CCCC2)c1`
≥ 15 µM

Kindly indicate its recorded IC50. Item: `c1cc(-c2cn[nH]c2C2CCCC2)cc(NCCCN2CCOCC2)n1`
≥ 15 µM

Kindly indicate its recorded IC50. Item: `Cc1ccccc1CNc1cc(-c2cn[nH]c2C2CCCC2)ccn1`
< 5 µM

Kindly indicate its recorded IC50. Item: `CC(C)c1[nH]ncc1-c1ccnc(NCC2CC2)c1`
< 5 µM

Kindly indicate its recorded IC50. Item: `COCCNc1cc(-c2cn[nH]c2C(C)C)ccn1`
< 10 µM

Kindly indicate its recorded IC50. Item: CC(C)c1[nH]ncc1-c1ccnc(NC(CO)C(C)C)c1 (stereo not shown)
< 15 µM

Kindly indicate its recorded IC50. Item: `CC(C)c1[nH]ncc1-c1ccnc(NCc2cccc(C(F)(F)F)c2)c1`
< 5 µM

Kindly indicate its recorded IC50. Item: CC(C)c1[nH]ncc1-c1ccnc(NCC2CCCO2)c1 (stereo not shown)
< 10 µM

Kindly indicate its recorded IC50. Item: `c1cc(-c2cn[nH]c2C2CCCC2)cc(NC2CCC2)n1`
< 0.5 µM

Kindly indicate its recorded IC50. Item: `CC(C)c1[nH]ncc1-c1ccnc(NCCN2CCCCC2)c1`
≥ 15 µM

Kindly indicate its recorded IC50. Item: `CCCCNc1cc(-c2cn[nH]c2C(C)C)ccn1`
< 5 µM

Kindly indicate its recorded IC50. Item: CC(C)c1[nH]ncc1-c1ccnc(NC2CCc3ccccc32)c1 (stereo not shown)
< 5 µM

Kindly indicate its recorded IC50. Item: `CC(C)c1[nH]ncc1-c1ccnc(NC2CC2)c1`
< 1 µM

Kindly indicate its recorded IC50. Item: `CC(C)c1[nH]ncc1-c1ccnc(NCc2ccc(F)cc2)c1`
< 5 µM
